B1: WEE1 (parent)
chain: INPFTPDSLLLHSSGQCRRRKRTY

Variants of: B1
MEASUREMENT NOTES: protein stability index of a GFP-peptide fusion (GPS, HEK-293T) (PSI 1-6); higher = more stable;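 note: lentivirally expressed fusions sorted by FACS into six bins by GFP to DsRed ratio, PSI derived from sequencing read proportions per bin multiplied by bin number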
DETAILS: c terminus: a fixed tail appended
# reported protein stability index; entries follow
MEASURED METRIC: protein stability index

> print(dat)
                   sequence.content          measured.metric  result
 1  INPFTPDSLLLHSSGQCRRPKRTY [R20P]  protein stability index    3.12
 2  INPFTPDSLLLHSSQQCRRRKRTY [G15Q]  protein stability index    3.72
 3   INHFTPDSLLLHSSGQCRRRKRTY [P3H]  protein stability index    3.93
 4   INWFTPDSLLLHSSGQCRRRKRTY [P3W]  protein stability index     1.3
 5  INPFTPDSLILHSSGQCRRRKRTY [L10I]  protein stability index    3.61
 6  INPFTPDSLLLHSSGQCRRRKRTP [Y24P]  protein stability index    3.81
 7   INVFTPDSLLLHSSGQCRRRKRTY [P3V]  protein stability index    2.71
 8  INPFTPDSLLLHSSGQCRRRKRTL [Y24L]  protein stability index    3.04
 9  INPFTPDSLLLHSSGQCRRRKYTY [R22Y]  protein stability index    2.87
10  INPFTPDSLLHHSSGQCRRRKRTY [L11H]  protein stability index    3.47
11  INPFTPDSLLLHSSGQCRRRKHTY [R22H]  protein stability index     3.5
